Recorded fold change of Putrescine concentration by entry
Tested on: Escherichia coli IAI1
ASSAY_OVERVIEW: fold change of Putrescine concentration vs plate DMSO controls (fold change (ratio)); higher = more amine produced, active = hit call of the paper (significant change in both replicates, either direction)
CONDITION_SET: incubation time: 27 h, anaerobic, 37 °C
Where a name gives a salt, the structure may show the parent alone.
ASSAY_READOUT: fold change of Putrescine concentration

Nc1nc2n[nH]nc2c(=O)[nH]1 [Azaguanine-8] (20 µM): 1.01
CC1(C)S[C@@H]2[C@H](NC(=O)[C@H](C(=O)O)c3ccsc3)C(=O)N2[C@H]1C(=O)O [Ticarcillin sodium] (20 µM): 1.21
CN(C)CCOC(c1ccccc1)c1ccccc1.Cn1c(=O)c2[nH]c(Cl)nc2n(C)c1=O [Dimenhydrinate] (20 µM): 0.995
Cc1ccc(-c2ncc(Cl)cc2-c2ccc(S(C)(=O)=O)cc2)cn1 [Etoricoxib] (20 µM): 1.05
Clc1ccc2c(c1)CCc1cccnc1C2=C1CCNCC1 [Desloratadine] (20 µM): 1
CNC1(C)C2CCC(C2)C1(C)C (stereo not drawn) [Mecamylamine hydrochloride] (20 µM): 0.992
CN1CC2c3ccccc3Oc3ccc(Cl)cc3C2C1 (stereo not drawn) [Asenapine maleate] (20 µM): 1
Cc1ccc(N(CC2=NCCN2)c2cccc(O)c2)cc1 [Phentolamine hydrochloride] (20 µM): 1.05
COc1ccc(CNc2nc(N3CCC[C@H]3CO)ncc2C(=O)NCc2ncccn2)cc1Cl [Avanafil] (20 µM): 1.04
OC[C@H]1O[C@H](O[C@H]2O[C@H](CO)[C@@H](O)[C@H](O)[C@H]2O)[C@H](O)[C@@H](O)[C@@H]1O [Trehalose dihydrate] (20 µM): 1.02
[S] (20 µM): 1.02
CC(=O)Oc1cc2c(s1)CCN(C(C(=O)C1CC1)c1ccccc1F)C2 (stereo not drawn) [Prasugrel] (20 µM): 0.983
CN1Cc2c(N)cccc2C(c2ccccc2)C1 (stereo not drawn) [Nomifensine maleate] (20 µM): 0.989
O=C(Nc1ccc([N+](=O)[O-])cc1Cl)c1cc(Cl)ccc1O [Niclosamide] (20 µM): 1.22
CC1Cc2ccccc2N1NC(=O)c1ccc(Cl)c(S(N)(=O)=O)c1 (stereo not drawn) [Indapamide] (20 µM): 1
CCN1CCCC1CNC(=O)c1cc(S(=O)(=O)CC)c(N)cc1OC (stereo not drawn) [Amisulpride] (20 µM): 1.01
CC[C@@H](CO)NCCN[C@@H](CC)CO [Ethambutol dihydrochloride] (20 µM): 1.05
CCOc1ccc2c(c1)C(C)=CC(C)(C)N2 [Ethoxyquin] (20 µM): 1

* * *

Tested on: Escherichia coli IAI1
ASSAY_OVERVIEW: fold change of Putrescine concentration vs plate DMSO controls (fold change (ratio)); higher = more amine produced, active = hit call of the paper (significant change in both replicates, either direction)
CONDITION_SET: incubation time: 27 h, anaerobic, 37 °C
Where a name gives a salt, the structure may show the parent alone.
ASSAY_READOUT: fold change of Putrescine concentration

C=C(CC)C(=O)c1ccc(OCC(=O)O)c(Cl)c1Cl [Ethacrynic acid] (20 µM): 0.972
Cc1ccc(-c2cc(C(F)(F)F)nn2-c2ccc(S(N)(=O)=O)cc2)cc1 [Celecoxib] (20 µM): 1.03
O=C(O)c1cn(C2CC2)c2cc(N3CCNCC3)c(F)cc2c1=O [Ciprofloxacin hydrochloride monohydrate] (20 µM): 0.53
CN(C)c1nc(N(C)C)nc(N(C)C)n1 [Altretamine] (20 µM): 1.15
CCC[C@H](N[C@@H](C)C(=O)N1[C@H](C(=O)O)C[C@@H]2CCCC[C@@H]21)C(=O)OCC [Perindopril] (20 µM): 0.914
COc1ccccc1N1CCN(CCCNc2cc(=O)n(C)c(=O)n2C)CC1 [Urapidil hydrochloride] (20 µM): 0.978
CCN(CCCCOC(=O)c1ccc(OC)c(OC)c1)C(C)Cc1ccc(OC)cc1 (stereo not drawn) [Mebeverine hydrochloride] (20 µM): 1.15
Cc1ccc(S(=O)(=O)NC(=O)NN2CC3CCCC3C2)cc1 (stereo not drawn) [Gliclazide] (20 µM): 0.995

* * *

System: Ruminococcus gnavus DSM 108212
ASSAY_OVERVIEW: growth (OD595) fold change vs plate DMSO controls (fold change (ratio)); higher = more growth
CONDITION_SET: incubation time: 27 h, anaerobic, 37 °C
ASSAY_READOUT: growth

N[C@@H]1CONC1=O [D-cycloserine] (20 µM): 0.926
NS(=O)(=O)c1cc(C(=O)O)cc(N2CCCC2)c1Oc1ccccc1 [Piretanide] (20 µM): 0.955
NC(=O)OCC(O)COc1ccc(Cl)cc1 (stereo not drawn) [Chlorphensin carbamate] (20 µM): 1.2
Cc1cccn2c(=O)c(-c3nnn[nH]3)cnc12 [Pemirolast potassium] (20 µM): 0.807
CC(=O)OCC(=O)[C@@]1(O)CC[C@H]2[C@@H]3CCC4=CC(=O)C=C[C@]4(C)[C@@]3(F)[C@@H](O)C[C@@]21C [Isoflupredone acetate] (20 µM): 1
CCOc1cc(CC(=O)N[C@@H](CC(C)C)c2ccccc2N2CCCCC2)ccc1C(=O)O [Repaglinide] (20 µM): 0.81
CCOC(=O)n1ccn(C)c1=S [Carbimazole] (20 µM): 1.08
COc1ccc2c(c1)C(=O)N(CCc1ccc(S(=O)(=O)NC(=O)NC3CCCCC3)cc1)C(=O)C2(C)C [Gliquidone] (20 µM): 0.999

* * *

Test system: Klebsiella aerogenes DSM 30053
ASSAY_OVERVIEW: fold change of Histamine concentration vs plate DMSO controls (fold change (ratio)); higher = more amine produced, active = hit call of the paper (significant change in both replicates, either direction)
CONDITION_SET: incubation time: 27 h, anaerobic, 37 °C
Structures can show the parent of a compound that is named as a salt.
The reader will find reported fold change of Histamine concentration values listed item by item below.
ASSAY_READOUT: fold change of Histamine concentration

C#C[C@]1(O)CC[C@H]2[C@@H]3CCc4cc(O)ccc4[C@H]3CC[C@@]21C [Ethinylestradiol] (20 µM): 1.01
CC(=O)N[C@@H](CC(=O)O)C(=O)N[C@@H](CCC(=O)O)C(=O)O [Spaglumic acid] (20 µM): 1.03
Nc1ccc(C(=O)NCC(=O)O)cc1 [Aminohippuric acid] (20 µM): 0.944
OCCN1CCN(CC/C=C2/c3ccccc3Sc3ccc(Cl)cc32)CC1 [Zuclopenthixol dihydrochloride] (20 µM): 1.03
Cc1ccc(=O)n(-c2ccccc2)c1 [Pirfenidone] (20 µM): 1.02
CC(N)CCCC(C)(C)O (centres undefined) [Heptaminol hydrochloride] (20 µM): 0.999
O=C1OC(c2ccc(O)cc2)(c2ccc(O)cc2)c2ccccc21 [Phenolphthalein] (20 µM): 1
COc1cc(NC(C)CCCN)c2ncccc2c1 (centres undefined) [Primaquine diphosphate] (20 µM): 0.851
CN[C@H](CC(C)C)C(=O)N[C@H]1C(=O)N[C@@H](CC(N)=O)C(=O)N[C@H]2C(=O)N[C@H]3C(=O)N[C@H](C(=O)N[C@H](C(=O)O)c4cc(O)cc(O)c4-c4cc3ccc4O)[C@H](O)c3ccc(c(Cl)c3)Oc3cc2cc(c3O[C@@H]2O[C@H](CO)[C@@H](O)[C@H](O)[C@H]2O[C@H]2C[C@](C)(N)[C@H](O)[C@H](C)O2)Oc2ccc(cc2Cl)[C@H]1O [Vancomycin hydrochloride] (20 µM): 1.07
CCN(CC)CCOCCOC(=O)C(CC)(CC)c1ccccc1 [Oxeladin citrate] (20 µM): 0.957
COc1ccc(CN(CCN(C)C)c2ccccn2)cc1 [Pyrilamine maleate] (20 µM): 1.02
Cc1cccn2c(=O)c(-c3nnn[nH]3)cnc12 [Pemirolast potassium] (20 µM): 1.03
C=CC1=C(C(=O)O)N2C(=O)[C@@H](NC(=O)/C(=N\O)c3csc(N)n3)[C@H]2SC1 [Cefdinir] (20 µM): 1.22
CCCNC(C)C(=O)Nc1c(C)csc1C(=O)OC (centres undefined) [Articaine hydrochloride] (20 µM): 0.917
C[C@H]1[C@@H](O)O[C@@H]2O[C@@]3(C)CC[C@H]4[C@H](C)CC[C@@H]1[C@@]24OO3 [Artenimol] (20 µM): 1.01
C[C@]12CCC(=O)C=C1C=C[C@@H]1[C@@H]2CC[C@@]2(C)[C@H]1CC[C@@]21CCC(=O)O1 [Canrenone] (20 µM): 0.908
COc1cc(NS(=O)(=O)c2ccc(N)cc2)ncn1 [Sulfamonomethoxine] (20 µM): 1.11
COc1ccc(CN2CCN(C(c3ccc(F)cc3)c3ccc(F)cc3)CC2)c(OC)c1OC [Lomerizine dihydrochloride] (20 µM): 0.983
C[C@@H](c1ncncc1F)[C@](O)(Cn1cncn1)c1ccc(F)cc1F [Voriconazole] (20 µM): 0.988
Nc1c2ccccc2nc2ccccc12 [Aminacrine] (20 µM): 1.07
Cc1ccc(C(=O)c2cc(O)c(O)c([N+](=O)[O-])c2)cc1 [Tolcapone] (20 µM): 1.01
CCOC(=O)C(C)(N)Cc1cc(I)c(Oc2cc(I)c(O)c(I)c2)c(I)c1 (centres undefined) [Etiroxate hydrochloride] (20 µM): 1.04
O=C(c1ccc(OCCN2CCCCC2)cc1)c1c(-c2ccc(O)cc2)sc2cc(O)ccc12 [Raloxifene hydrochloride] (20 µM): 0.986
O=C(NCCCN1CCOCC1)c1ccc(Cl)cc1 [Eprobemide] (20 µM): 0.982
C#C[C@]1(O)CC[C@H]2[C@@H]3CCC4=Cc5oncc5C[C@]4(C)[C@H]3CC[C@@]21C [Danazol] (20 µM): 1.07
O=C1[C@H](CC[C@H](O)c2ccc(F)cc2)[C@@H](c2ccc(O)cc2)N1c1ccc(F)cc1 [Ezetimibe] (20 µM): 0.972
NC(=O)c1ncn([C@@H]2O[C@H](CO)[C@@H](O)[C@H]2O)n1 [Ribavirin] (20 µM): 0.947
CC(C)NCC(O)COc1ccc(CCOCC2CC2)cc1 (centres undefined) [Betaxolol hydrochloride] (20 µM): 0.935
CCC(C)(C)C(=O)O[C@H]1C[C@@H](C)C=C2C=C[C@H](C)[C@H](CC[C@@H]3C[C@@H](O)CC(=O)O3)[C@H]21 [Simvastatin] (20 µM): 0.919
